target system: human mature TGFβ2 (PeproTech) (Homo sapiens, UniProt P61812)
Sequence (P61812 303-414): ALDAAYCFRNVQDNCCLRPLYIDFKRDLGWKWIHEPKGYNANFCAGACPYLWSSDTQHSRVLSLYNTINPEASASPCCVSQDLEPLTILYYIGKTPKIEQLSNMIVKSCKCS
test name: cell-based or functional assay
Reported TGFβ inhibition by HEK-Blue cells (IC50: nM), TGFb2; Blocking: Incomplete values are given for each entry in this list.

For the binder h4A11.v7.6 (antibody, V domains shown, as the VH of m12 (h4A11.v7); numbers count on: Kabat numbering of the heavy chain; as the VL of m12 (h4A11.v7); human IgG1; also called v7.6_S19R, S79W, K81R; source: Expi293F, transient, purified (Protein A, SEC)) VH: EQQLQESGPGLVKPSETLRLTCTVTGFSLSSYTVNWVRQPAGKGLEWIGYISYGGSAYYASWANGRFTISKDSSKNQVWLRLSSVTAADTAVYFCARHMQVGGAPTGSMAAFDPWGPGTLVTVSS VL: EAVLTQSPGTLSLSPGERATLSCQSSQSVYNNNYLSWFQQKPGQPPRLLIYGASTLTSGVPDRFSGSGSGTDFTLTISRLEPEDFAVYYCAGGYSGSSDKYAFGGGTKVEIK , what TGFβ inhibition by HEK-Blue cells (IC50: nM), TGFb2; Blocking: Incomplete is on record?
> 667 nM

For the binder h4A11.v7.2 (antibody, V domains shown, as the VH of m12 (h4A11.v7); numbers count on: Kabat numbering of the heavy chain; as the VL of m12 (h4A11.v7); human IgG1; also called v7.2_S19R, S79W; source: Expi293F, transient, purified (Protein A, SEC)) VH: EQQLQESGPGLVKPSETLRLTCTVTGFSLSSYTVNWVRQPAGKGLEWIGYISYGGSAYYASWANGRFTISKDSSKNQVWLKLSSVTAADTAVYFCARHMQVGGAPTGSMAAFDPWGPGTLVTVSS VL: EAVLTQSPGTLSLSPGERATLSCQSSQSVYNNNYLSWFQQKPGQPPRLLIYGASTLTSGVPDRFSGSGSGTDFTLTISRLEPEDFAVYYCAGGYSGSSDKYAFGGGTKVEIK , what TGFβ inhibition by HEK-Blue cells (IC50: nM), TGFb2; Blocking: Incomplete is on record?
> 667 nM

For the binder h4A11.v7.4 (antibody, V domains shown, as the VH of m12 (h4A11.v7); numbers count on: Kabat numbering of the heavy chain; as the VL of m12 (h4A11.v7); human IgG1; also called v7.4_S19R, S79Y, K81R; source: Expi293F, transient, purified (Protein A, SEC)) VH: EQQLQESGPGLVKPSETLRLTCTVTGFSLSSYTVNWVRQPAGKGLEWIGYISYGGSAYYASWANGRFTISKDSSKNQVYLRLSSVTAADTAVYFCARHMQVGGAPTGSMAAFDPWGPGTLVTVSS VL: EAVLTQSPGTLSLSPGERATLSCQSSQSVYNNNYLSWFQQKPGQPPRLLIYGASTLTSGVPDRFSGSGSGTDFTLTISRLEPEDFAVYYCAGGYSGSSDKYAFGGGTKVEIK , what TGFβ inhibition by HEK-Blue cells (IC50: nM), TGFb2; Blocking: Incomplete is on record?
> 667 nM
